Data origin: the supplement of paper PMC7285287

Test system: Candida albicans SNY425 biofilm
Assay: biofilm OD600 relative to DMSO control (fraction of DMSO control); higher = more biofilm (less inhibition)
Condition Context: 40 µM; assay detail: sustained inhibition, 384-well, compound during adherence and 24 h growth
Counter-ions that a name gives are not always drawn.
Value Type: biofilm OD600
Give bare numbers.

Observe how each entry below is paired with its result.
> print(dat)
                                   compound     value.type  measured
1                   Oc1c(Cl)cc(Cl)c2cccnc12  biofilm OD600      0.28
2  CC(C)N1CCN(c2ccc(OCC3COC(Cn4cncn4)(c4ccc(Cl)cc4Cl)O3)cc2)CC1 (stereo not drawn)  biofilm OD600      0.55
3               Cc1cccc(Nc2ccccc2C(=O)O)c1C  biofilm OD600     0.905
4  C[C@@H]1CC[C@H]2[C@@H](C)C(=O)O[C@@H]3O[C@@]4(C)CC[C@@H]1[C@]32OO4  biofilm OD600     0.838
5  CN1CCC[C@@H]1Cc1c[nH]c2ccc(CCS(=O)(=O)c3ccccc3)cc12 [eletriptan hydrobromide]  biofilm OD600         1

Hi there! I need biofilm OD600 for each item below, if you can.
1. CC1OC1P(=O)(O)O (stereo not drawn)
2. Fc1ccc([C@@H]2CCNC[C@H]2COc2ccc3c(c2)OCO3)cc1 [paroxetine hydrochloride]
3. CC(C)[C@H](N)C(=O)OCCOCn1cnc2c(=O)nc(N)[nH]c21 [valacyclovir hydrochloride]
4. NC(=O)NC(=O)Cc1ccccc1 [phenacemide]
5. Nc1nc(=O)[nH]cc1F
6. CCN(CC)C(=O)C1(c2ccccc2)CC1CN (stereo not drawn) [milnacipran hydrochloride]
7. O=C1CN(/N=C/c2ccc([N+](=O)[O-])o2)C(=O)N1

0.982
0.509
0.982
1.02
0.798
0.962
0.999
